Molecular target: T1, human activated protein C (human, UniProt P04070 43-197; P04070 212-461)
T1 construct: In the plasma assays aPC is generated in human plasma with Protac; also called aPC; haPC
Experiment: ELISA, plate coated with haPC 1 ug/mL, anti-hIgG-Fc-HRP
Reported EC50 values are given for each entry in this list.
Number in nM, nothing else.

Here are 2 binders together with their reported answers.
# binder, unitsLabel, EC50
records = [
    ("HAPC-14-9 (antibody, V domains shown, Whole IgG, backbone hIgG1; also called HPAC 14-9) VH: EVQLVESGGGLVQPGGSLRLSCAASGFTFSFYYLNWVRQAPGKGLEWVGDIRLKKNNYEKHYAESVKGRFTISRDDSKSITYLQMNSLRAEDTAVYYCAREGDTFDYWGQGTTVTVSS VL: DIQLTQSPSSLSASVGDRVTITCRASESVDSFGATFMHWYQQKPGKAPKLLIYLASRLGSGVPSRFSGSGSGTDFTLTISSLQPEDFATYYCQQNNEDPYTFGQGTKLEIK", "nM", 0.0761),
    ("HAPC-14-5 (antibody, V domains shown, Whole IgG, backbone hIgG1; also called HPAC 14-5) VH: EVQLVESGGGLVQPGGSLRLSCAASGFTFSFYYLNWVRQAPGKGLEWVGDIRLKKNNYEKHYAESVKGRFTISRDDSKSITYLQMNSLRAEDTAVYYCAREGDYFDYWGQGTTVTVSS VL: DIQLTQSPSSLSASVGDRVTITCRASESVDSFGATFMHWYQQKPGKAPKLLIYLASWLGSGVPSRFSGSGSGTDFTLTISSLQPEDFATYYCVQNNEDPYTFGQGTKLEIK", "nM", 0.0924),
]

IN: Provide only the value of recorded EC50 for HAPC-14-1 (antibody, V domains shown, Whole IgG, backbone hIgG1; also called HPAC14-1) VH: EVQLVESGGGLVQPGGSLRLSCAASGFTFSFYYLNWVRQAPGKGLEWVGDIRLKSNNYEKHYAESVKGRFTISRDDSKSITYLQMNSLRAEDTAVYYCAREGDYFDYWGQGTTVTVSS VL: DIQLTQSPSSLSASVGDRVTITCRASESVDSFGATFMHWYQQKPGKAPKLLIYLASWLGSGVPSRFSGSGSGTDFTLTISSLQPEDFATYYCQQNNEDPYTFGQGTKLEIK
OUT: 0.114

IN: Provide only the value of recorded EC50 for HAPC-14-4 (antibody, V domains shown, Whole IgG, backbone hIgG1; also called HPAC 14-4) VH: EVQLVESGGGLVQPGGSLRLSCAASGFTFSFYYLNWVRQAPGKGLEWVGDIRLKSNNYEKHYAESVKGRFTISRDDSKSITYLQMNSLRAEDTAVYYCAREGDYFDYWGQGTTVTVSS VL: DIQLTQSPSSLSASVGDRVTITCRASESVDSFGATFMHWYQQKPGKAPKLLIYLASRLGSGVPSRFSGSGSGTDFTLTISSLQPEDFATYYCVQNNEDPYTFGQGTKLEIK
OUT: 0.0605
